- tested target: human EAAT3 (Homo sapiens, UniProt P43005)
- Sequence (P43005 whole entry): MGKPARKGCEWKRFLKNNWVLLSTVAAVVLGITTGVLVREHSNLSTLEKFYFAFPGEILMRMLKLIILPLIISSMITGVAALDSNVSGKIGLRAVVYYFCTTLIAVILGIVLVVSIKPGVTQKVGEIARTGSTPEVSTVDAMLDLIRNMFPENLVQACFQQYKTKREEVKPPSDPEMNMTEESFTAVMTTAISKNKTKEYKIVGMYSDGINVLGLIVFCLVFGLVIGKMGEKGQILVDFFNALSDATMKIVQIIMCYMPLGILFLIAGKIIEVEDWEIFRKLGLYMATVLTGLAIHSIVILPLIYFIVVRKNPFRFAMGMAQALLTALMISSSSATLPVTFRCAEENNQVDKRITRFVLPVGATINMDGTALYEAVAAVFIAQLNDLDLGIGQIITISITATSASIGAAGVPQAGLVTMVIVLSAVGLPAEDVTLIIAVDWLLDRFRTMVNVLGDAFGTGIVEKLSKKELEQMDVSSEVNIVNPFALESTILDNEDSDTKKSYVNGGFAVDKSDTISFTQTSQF
- procedure summary: [14C]glutamate uptake inhibition in human EAAT3 constitutively expressed in MDCK cells
- run parameters: 1 μM L-[14C]glutamate, 12 minutes incubation
assay readout: IC50
Form field: result (number plus unit)

Reference set, count: 3
INSERT INTO results (compound, tested_target, assay_readout, result_value) VALUES
  ('CCC(=O)Nc1cc(CO[C@H](C(=O)O)[C@H](N)C(=O)O)cc(NC(=O)c2ccc(C(F)(F)F)cc2)c1 [Compound 14]', 'human EAAT3 (Homo sapiens, UniProt P43005)', 'IC50', '112 nM'),
  ('N[C@H](C(=O)O)[C@H](OCc1cc(NC(=O)c2ccc(C(F)(F)F)cc2)cc(NC(=O)c2ccc(C(F)(F)F)cc2)c1)C(=O)O [Compound 11]', 'human EAAT3 (Homo sapiens, UniProt P43005)', 'IC50', '0.46 nM'),
  ('N[C@H](C(=O)O)[C@H](OCc1ccccc1)C(=O)O [L-TBOA, L-threo-β-benzyloxyaspartic acid, reference compound]', 'human EAAT3 (Homo sapiens, UniProt P43005)', 'IC50', '1300 nM');

Pending compound:
Requested read-out: IC50. Entry: NCCOCCOCCOCCOCC(=O)NCCCCCC(=O)NCCCCCC(=O)Nc1cc(CO[C@H](C(=O)O)[C@H](N)C(=O)O)cc(NC(=O)c2ccc(C(F)(F)F)cc2)c1 [Compound 10]
805 nM

* * *

- tested target: human EAAT2 (Homo sapiens)
- procedure summary: [14C]glutamate uptake inhibition in human EAAT2 constitutively expressed in MDCK cells
- run parameters: 1 μM L-[14C]glutamate, 12 minutes incubation
Entries annotated with measured pIC50
Kindly note that pIC50 refers to -log10 of the concentration in mol/L and answer with the value alone.

// known answers, use as guide
INSERT INTO assay_data (compound, result_value) VALUES
  ('N[C@H](C(=O)O)[C@H](OCc1cc(NC(=O)c2ccc(C(F)(F)F)cc2)cc(NC(=O)c2ccc(C(F)(F)F)cc2)c1)C(=O)O', 8.89),
  ('N[C@H](C(=O)O)[C@H](OCc1ccccc1)C(=O)O [L-TBOA, L-threo-β-benzyloxyaspartic acid, reference compound]', 5.89),
  ('CCC(=O)Nc1cc(CO[C@H](C(=O)O)[C@H](N)C(=O)O)cc(NC(=O)c2ccc(C(F)(F)F)cc2)c1', 8.33);

Please turn your attention to the following entry.
Fill blank: measured pIC50 of the compound `NCCOCCOCCOCCOCC(=O)NCCCCCC(=O)NCCCCCC(=O)Nc1cc(CO[C@H](C(=O)O)[C@H](N)C(=O)O)cc(NC(=O)c2ccc(C(F)(F)F)cc2)c1` is ____.
7.64
